Let's look at some binders and their measured Relative Proliferation Fold Change NKL 1:50.
Target: T1, orthogonal hCD122 receptor (hoRb), hCD122 with H133D and Y134F (human, UniProt P14784 27-550); also: reference of the scale not given here
T1 sequence: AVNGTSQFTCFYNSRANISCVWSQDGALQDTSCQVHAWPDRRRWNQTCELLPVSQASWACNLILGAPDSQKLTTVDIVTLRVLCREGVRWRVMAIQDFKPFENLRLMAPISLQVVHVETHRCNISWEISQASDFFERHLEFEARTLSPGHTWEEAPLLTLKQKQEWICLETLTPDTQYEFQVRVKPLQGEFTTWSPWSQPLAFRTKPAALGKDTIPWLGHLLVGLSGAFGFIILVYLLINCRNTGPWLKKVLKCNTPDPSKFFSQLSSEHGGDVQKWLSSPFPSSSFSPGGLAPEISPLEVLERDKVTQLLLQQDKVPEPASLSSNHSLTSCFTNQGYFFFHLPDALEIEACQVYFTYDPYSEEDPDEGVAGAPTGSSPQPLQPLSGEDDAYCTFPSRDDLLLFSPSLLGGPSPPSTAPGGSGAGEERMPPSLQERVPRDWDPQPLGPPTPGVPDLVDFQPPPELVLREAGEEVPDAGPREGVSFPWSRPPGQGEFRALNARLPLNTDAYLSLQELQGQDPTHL
Test: cell-based or functional assay

Documented Relative Proliferation Fold Change NKL 1:50 of SQVLKF (ligand) APTSSSTKKTQLQLSQLLVLLKFILNGINNYKNPKLTRMLTFKFYMPKKATELKHLQCLEEELKPLEEVLNLAQSKNFHLRPRDLISNINVIVLELKGSETTFMCEYADETATIVEFLNRWITFCQSIISTLT : 1.43 fold

Lab note: T3Q, SQVLKA (ligand) APQSSSTKKTQLQLSQLLVLLKAILNGINNYKNPKLTRMLTFKFYMPKKATELKHLQCLEEELKPLEEVLNLAQSKNFHLRPRDLISNINVIVLELKGSETTFMCEYADETATIVEFLNRWITFCQSIISTLT gave Relative Proliferation Fold Change NKL 1:50 of 1.93 fold

// Relative Proliferation Fold Change NKL 1:50 value for Q126R, SQVLKA (ligand) APTSSSTKKTQLQLSQLLVLLKAILNGINNYKNPKLTRMLTFKFYMPKKATELKHLQCLEEELKPLEEVLNLAQSKNFHLRPRDLISNINVIVLELKGSETTFMCEYADETATIVEFLNRWITFCRSIISTLT : 0.57 fold

Relative Proliferation Fold Change NKL 1:50 reading for I92F, SQVLKA (ligand) APTSSSTKKTQLQLSQLLVLLKAILNGINNYKNPKLTRMLTFKFYMPKKATELKHLQCLEEELKPLEEVLNLAQSKNFHLRPRDLISNINVFVLELKGSETTFMCEYADETATIVEFLNRWITFCQSIISTLT : 0.92 fold

Short answer for Q126M, SQVLKA (ligand) APTSSSTKKTQLQLSQLLVLLKAILNGINNYKNPKLTRMLTFKFYMPKKATELKHLQCLEEELKPLEEVLNLAQSKNFHLRPRDLISNINVIVLELKGSETTFMCEYADETATIVEFLNRWITFCMSIISTLT : Relative Proliferation Fold Change NKL 1:50 was 0.74 fold

Recorded Relative Proliferation Fold Change NKL 1:50 (binder T3E, SQVLKA (ligand) APESSSTKKTQLQLSQLLVLLKAILNGINNYKNPKLTRMLTFKFYMPKKATELKHLQCLEEELKPLEEVLNLAQSKNFHLRPRDLISNINVIVLELKGSETTFMCEYADETATIVEFLNRWITFCQSIISTLT ): 2.06 fold

Lookup result for H55Y, SQVLKA (ligand) APTSSSTKKTQLQLSQLLVLLKAILNGINNYKNPKLTRMLTFKFYMPKKATELKYLQCLEEELKPLEEVLNLAQSKNFHLRPRDLISNINVIVLELKGSETTFMCEYADETATIVEFLNRWITFCQSIISTLT ; measured Relative Proliferation Fold Change NKL 1:50: 1.22 fold

# binder T3K, SQVLKA (ligand) APKSSSTKKTQLQLSQLLVLLKAILNGINNYKNPKLTRMLTFKFYMPKKATELKHLQCLEEELKPLEEVLNLAQSKNFHLRPRDLISNINVIVLELKGSETTFMCEYADETATIVEFLNRWITFCQSIISTLT ; its Relative Proliferation Fold Change NKL 1:50 = 1.38 fold

Entry L18V, SQVLKA (ligand) APTSSSTKKTQLQLSQLVVLLKAILNGINNYKNPKLTRMLTFKFYMPKKATELKHLQCLEEELKPLEEVLNLAQSKNFHLRPRDLISNINVIVLELKGSETTFMCEYADETATIVEFLNRWITFCQSIISTLT ; Relative Proliferation Fold Change NKL 1:50 = 0.62 fold

// Relative Proliferation Fold Change NKL 1:50 value for T113N, SQVLKA (ligand) APTSSSTKKTQLQLSQLLVLLKAILNGINNYKNPKLTRMLTFKFYMPKKATELKHLQCLEEELKPLEEVLNLAQSKNFHLRPRDLISNINVIVLELKGSETTFMCEYADETANIVEFLNRWITFCQSIISTLT : 1.63 fold
